test system: SF-539; experiment: NCI tumour cell line growth inhibition, 48 h
Active and inactive are the calls of the source. No stated cut-off is given here; in the data, active = GI50 up to about 1.1 µM and inactive = higher.
Recorded Metric: GI50

Nc1ncnc2c1nnn2C1C=CC(CP(=O)(O)O)C1 (stereo unspecified) | > 100 µM (inactive)
O=C1C(c2ccccc2)=[N+]([O-])c2cc([N+](=O)[O-])ccc21 | 25.5 µM (inactive)
Cc1c(-c2cnccn2)ssc1=S | 63.1 µM (inactive)
COC(=O)[C@@H]1C[C@]2(CC=C(C)C)c3ccccc3N(S(=O)(=O)c3ccccc3)[C@@H]2N1C(=O)OC | 24.8 µM (inactive)
O=C(/C=C/NC(=O)OCc1ccccc1)OCc1ccccc1 | 64.9 µM (inactive)
CC(=O)NC1=C(NC(C)(C)C)C(=O)c2ccccc2C1=O | 15.8 µM (inactive)
O=C(CC(=O)c1ccc([N+](=O)[O-])cc1)C(=O)Nc1nccs1 | > 100 µM (inactive)
O=C1NC(=S)NC(=O)C1=Cc1ccc[nH]1 | 15.1 µM (inactive)
BrC/C=C/C[P+](c1ccccc1)(c1ccccc1)c1ccccc1 | 1.52 µM (inactive)
CCOC(=O)n1c2ccccc2c2c(O)c(OC)c3c(c21)C(=O)NC3=O | 57.5 µM (inactive)

Could you share which GI50 value was measured for COc1ccc2nc(/C(N)=C\C#N)ccc2c1 ?
46 µM (inactive)

----------
tested on: NCI-H522; assay: NCI tumour cell line growth inhibition, 48 h
Active and inactive are the calls of the source. Cut-off read from the data, not from the text of the source: active = GI50 up to about 1.1 µM and inactive = higher.
Each item that follows carries a reported GI50.

Cc1nc2ccccc2c(=O)n1-c1n[nH]c2ccccc12 | > 100 µM (inactive)
Oc1cc(-n2cccn2)c(O)cc1-n1cccn1 | 11.5 µM (inactive)
CN(C)/C=N\c1c(Br)cc(Br)c2nonc12 | > 100 µM (inactive)

Could you share which GI50 value was measured for COC(=O)C1=C(C(=O)OC)SC(=C2SCSC3=C2SC(C(=O)OC)=C(C(=O)OC)C32SC3=C(CCCC3)S2)S1 ?
> 100 µM (inactive)

Could you share which GI50 value was measured for COc1ccccc1N1C(=O)/C(=C\c2cc(OC)c(OC)c(OC)c2)S(=O)(=O)C1c1ccccc1 (stereo not given) ?
17 µM (inactive)

----------
Each item that follows carries a reported GI50.
system: LOX IMVI; test: NCI tumour cell line growth inhibition, 48 h
Activity calls are given as the source filed them. Rule as the data show it: active = GI50 up to about 1.1 µM and inactive = higher.

Could you share which GI50 value was measured for NC(=S)N/N=C(/CCN1CCCC1)CC(C1=C(O)C2=CCCCC2OC1=O)c1ccccc1 (centres undefined) ?
> 100 µM (inactive)

Could you share which GI50 value was measured for NC(=O)c1c[se]c(C2OC(CO)C(O)C2O)n1 (centres undefined) ?
32.1 µM (inactive)

Could you share which GI50 value was measured for O=S1(=O)OCCOS(=O)(=O)C1(F)Br ?
> 100 µM (inactive)

----------
system: CCRF-CEM; test: NCI tumour cell line growth inhibition, 48 h
Calls of active or inactive are those of the source. Rule as the data show it: active = GI50 up to about 1.1 µM and inactive = higher.
Outcomes you can answer with include only these: t for active, f for inactive

As a guide, the following entries are already answered.
Nc1nc(SCCC/C=C/B(O)O)nc2c1ncn2C1OC(CO)C(O)C1O (stereo not given) | f
CC(NC(=O)c1ccc(NP(=O)(OCc2ccc([N+](=O)[O-])o2)N(C)CCCCCl)cc1)c1ccc(OCC2CCCCC2)c(C(N)=O)c1 (stereo not given) | t
C=C(C)CCC1CC=[N+]([O-])OC1C(C)(C)C (stereo not given) | f
COC(=O)C(C#N)C1NC(=O)c2ccccc21 (stereo not given) | f

For COc1ccc2nc(/C(N)=C\C#N)ccc2c1 , which call appears in the assay record?
f

From: ChEMBL document CHEMBL1201862
